tested system: XIAP BIR3 (Homo sapiens (Human), UniProt P98170)
Sequence (P98170 241-356): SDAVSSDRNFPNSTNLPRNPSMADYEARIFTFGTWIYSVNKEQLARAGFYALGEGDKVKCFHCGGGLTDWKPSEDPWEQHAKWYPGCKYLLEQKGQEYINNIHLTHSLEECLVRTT
assay summary: XIAP BIR3 Ki
Type: binding
assay setup: Table B-1
measure: Ki

# compound, obs value
records = [
    ("CN[C@@H](C)C(=O)N[C@H]1CO[C@H]2CCC(C(=O)Nc3ccc(Cl)cc3)N2C1=O (stereo partly shown) [Compound 8]", "25 to 50 µM"),
    ("CC(=O)N(C)[C@@H](C)C(=O)N[C@H]1CCCN(C(C)=O)[C@H]2CCC(C(=O)Nc3cccc4ccccc34)N2C1=O (stereo partly shown) [Compound 19]", "25 to 50 µM"),
    ("CN[C@@H](C)C(=O)N[C@H]1CO[C@H]2CCC(C(=O)Nc3ccc(OC)cc3)N2C1=O (stereo partly shown) [Compound 7]", "25 to 50 µM"),
]

# next compound below
Q: Field request: Ki | item: CN[C@@H](C)C(=O)N[C@H]1CCCNC2CCC(C(=O)Nc3cccc4ccccc34)N2C1=O (stereo partly shown) [Compound 17]
Ans: ≤ 25 µM
